Property: melting point; scope: individual compounds

Some solved cases for reference:
compound	melting point
CCOC(=O)C(Cl)=NO	75 to 80 °C
CCNC1=NS(=O)N=C1NCCSCc1ccc(CN(C)C)o1 (stereo unspecified)	68 to 74 °C
CCCCCN(CCC1CCCCC1)C(=O)NCc1ccncc1	64.7 to 65.8 °C
COc1cccc(C=NNC(=O)OC(C)(C)C)c1	136 to 137 °C
CSCCOC(=O)CSc1cc(N=c2sc(=O)n3n2CCCC3)ccc1Cl	57 to 58 °C

melting point measured on CCOC(=O)N=P(c1ccccc1)(c1ccccc1)c1ccccc1CN1CCCCC1 = 121 to 123 °C
